Molecular target: PARLΔ77 (β-cleavage form of human PARL) (human) (UniProt Q9H300)
Sequence (Q9H300 77-379, stated change not applied): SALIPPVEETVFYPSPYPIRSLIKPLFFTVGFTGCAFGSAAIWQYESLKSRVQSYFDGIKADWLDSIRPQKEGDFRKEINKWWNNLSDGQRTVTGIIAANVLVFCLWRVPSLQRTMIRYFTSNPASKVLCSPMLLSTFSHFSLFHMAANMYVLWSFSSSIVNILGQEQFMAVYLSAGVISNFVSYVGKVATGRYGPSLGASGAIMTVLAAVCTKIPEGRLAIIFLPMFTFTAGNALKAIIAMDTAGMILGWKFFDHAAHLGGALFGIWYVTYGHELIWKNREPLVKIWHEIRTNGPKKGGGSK
Assay: competitive inhibition of FRET peptide cleavage (enzyme kinetics); PARLΔ77 0.8 μM; IQ-Smac/Diablo 51-60 (0.3–25 μM) as main substrate; nonfluorescent PINK1 89-111 at 2.5, 5, 10, 20 μM; Michaelis–Menten plots fitted globally, competitive model; Kd represented by Ki
recordedMetric: Ki (nM)
Value expressed in nM; do not type the unit.

Input: Look up and state reported Ki for AWGCAGPCGRAVFLAFGLGLGLI [PINK1 TM domain (amino acids 89–111), nonfluorescent]
Output: 2300

The reported measurements were obtained from paper PMC7966987.
